Molecular target: histamine H4 receptor (Homo sapiens)
Experiment: H4 Membrane Binding Assay (3H-Histamine displacement)
Settings: membranes of recombinant HEK293SFM cells, 10 nM 3H-Histamine, 1.5 hr at room temperature
VALUE TYPE: IC50 (nM)

The examples below pair each entry with its known result.
CN1CCN(c2cc(-c3ccc4c(c3)CN(C(=O)N[C@@H]3c5ccccc5C[C@@H]3O)CC4)nc(N)n2)CC1 : 218
Cc1ccnc(Oc2cccc(CNC(=O)c3ccc4c(N5CCN(C)CC5)nc(N)nc4c3)c2)c1 : 56
CN1CCN(c2cc(-c3ccc4c(c3)CN(C(=O)Nc3cccc(Cl)c3)CC4)nc(N)n2)CC1 : 19.6

a = CN1CCN(c2nc(N)nc3cc(C(=O)NC(Cc4cccc(Oc5cccc(C#N)c5)c4)C(=O)N(C)C)ccc23)CC1 (stereo not shown)
b = CN1CCN(c2nc(N)nc3cc(C(=O)N4CCc5c(cccc5OCc5ccc(C#N)cc5)C4)ccc23)CC1
c = CCOC(=O)c1cc(C)nc(Oc2cccc(CNC(=O)c3ccc4c(N5CCN(C)CC5)nc(N)nc4c3)c2)c1C#N
d = CCOC(=O)[C@H](CCc1ccccc1)NC(=O)c1ccc2c(N3CCN(C)CC3)nc(N)nc2c1
Ask | Put the compounds in ascending order of IC50. Your answer should be the labels, listed in the requested order.
Reply | c, a, b, d

----------
Target: histamine H4 receptor (Homo sapiens, UniProt Q9H3N8)
Assay: H4 Membrane Binding Assay (3H-Histamine displacement)
Settings: membranes of recombinant HEK293SFM cells, 10 nM 3H-Histamine, 1.5 hr at room temperature
pIC50: −log10 of the molar value.
VALUE TYPE: pIC50

COc1ccccc1-c1ccc(C[C@H](NC(=O)c2ccc3c(N4CCN(C)CC4)nc(N)nc3c2)C(=O)N(C)C)cc1 [Example 152] : 8.00
CC(C)CC(=O)N1CCc2ccc(-c3cc(N4CCN(C)CC4)nc(N)n3)cc2C1 [Example 100] : 7.35

1 = CC(Cc1cc2ccccc2o1)NC(=O)c1ccc2c(N3CCN(C)CC3)nc(N)nc2c1 (stereo not drawn) [Example 141]
2 = COC(=O)c1ccc(Oc2cccc(CC(NC(=O)c3ccc4c(N5CCN(C)CC5)nc(N)nc4c3)C(=O)N(C)C)c2)cc1 (stereo not drawn) [Example 169]
3 = CCC(C)CC(=O)N1CCc2ccc(-c3cc(N4CCN(C)CC4)nc(N)n3)cc2C1 (stereo not drawn) [Example 111]
Ask | With regard to pIC50, arrange the entries in ascending order, please. API: response body holds the labels in the requested order.
Reply | 1, 2, 3
(1: 7.15, 2: 7.64, 3: 8.02)

P = CC(C)c1ccc(CC(NC(=O)c2ccc3c(N4CCN(C)CC4)nc(N)nc3c2)C(=O)N(C)C)cc1 (stereo not drawn) [Example 149]
Q = CN1CCN(c2nc(N)nc3cc(C(=O)NCc4cccc(Oc5cc(C#N)ccn5)c4)ccc23)CC1 [Example 183]
R = CC(NC(=O)c1ccc2c(N3CCN(C)CC3)nc(N)nc2c1)c1cccc(OCc2cccc(C#N)c2)c1 (stereo not drawn) [Example 201]
S = CN1CCN(c2cc(-c3ccc4c(c3)CN(C(=O)N3CCC(F)(F)CC3)CC4)nc(N)n2)CC1 [Example 104]
Ask | Sequence the entries by pIC50, beginning with the highest number. Please list the labels in the order you were asked to rank them.
Reply | R, P, Q, S
(R: 7.85, P: 7.40, Q: 7.19, S: 6.59)
